The molecules listed here are annotated with their growth inhibition.
System: HNSC
Assay: growth inhibition (% activity, log2 RLU normalised to DMSO / staurosporine); higher = more growth inhibition
Conditions: 33 µM
All answers are understood in %, so give the number only.

// known answers, use as guide
CCn1cc(C(=O)O)c(=O)c2cnc(N3CCCC3)nc21	-2.86
COc1cc2nc(N(C)CCCNC(=O)C3CCCO3)nc(N)c2cc1OC (stereo unspecified)	-0.343
O=C1C(=O)c2ccccc2C(O)=C1C1CCC(c2ccc(Cl)cc2)CC1 (stereo unspecified)	2.01
CC(C(=O)O)c1ccc2c(c1)Cc1cccnc1O2 (stereo unspecified)	2.91
COc1ccc(C2C(=O)c3ccccc3C2=O)cc1	2.05

Kindly note the recorded growth inhibition for COC(=O)[C@@H]1CC2=CC(=O)CC[C@]2(C)[C@@]23O[C@@H]2C[C@@]2(C)[C@@H](CC[C@@]24CCC(=O)O4)[C@H]13 , which is -0.69

Kindly note the recorded growth inhibition for CCCc1cc(C(N)=S)ccn1 , which is -2.9

Kindly note the recorded growth inhibition for N=C(N)NCCN1CCCCCCC1 , which is 5.04

Kindly note the recorded growth inhibition for CCN[C@H]1C[C@H](C)S(=O)(=O)c2sc(S(N)(=O)=O)cc21 , which is 4.56

Kindly note the recorded growth inhibition for CN(Cc1ccc(C(C)(C)C)cc1)Cc1cccc2ccccc12 , which is 0.815

Kindly note the recorded growth inhibition for C#C[C@]1(O)CC[C@H]2[C@@H]3CCc4cc(O)ccc4[C@H]3CC[C@@]21C , which is 0.451

* * *

The compounds listed here are annotated with their growth inhibition.
Test system: DIPGX29 (H3.3 K27M diffuse intrinsic pontine glioma line)
Experiment: growth inhibition (% activity, log2 RLU normalised to DMSO / staurosporine); higher = more growth inhibition
Settings: 33 µM
All answers are understood in %, so give the number only.

// known answers, use as guide
CC(c1cc2ccccc2s1)N(O)C(N)=O (configuration not stated)	0.492
CCOC(=O)[C@H](CCc1ccccc1)N[C@H]1CS[C@H](c2cccs2)CN(CC(=O)O)C1=O	-2.15
Clc1ccccc1C(c1ccccc1)(c1ccccc1)n1ccnc1	3.31

Kindly note the recorded growth inhibition for COc1ccc(/C=C/C(=O)Nc2ccccc2C(=O)O)cc1OC , which is -0.16

Kindly note the recorded growth inhibition for CC1CCc2c(N3CCC(O)CC3)c(F)cc3c(=O)c(C(=O)O)cn1c23 (configuration not stated) , which is 1.83

Kindly note the recorded growth inhibition for CC(=O)OCC(=O)[C@@]12OC(C)(C)O[C@@H]1C[C@H]1[C@@H]3C[C@H](F)C4=CC(=O)C=C[C@]4(C)[C@@]3(F)[C@@H](O)C[C@@]12C , which is 0.7

Kindly note the recorded growth inhibition for CCN(CC)C(=O)C1(c2ccccc2)CC1CN (configuration not stated) , which is 0.721

Kindly note the recorded growth inhibition for CC(C)C[C@H](NC(=O)[C@H](Cc1ccccc1)NC(=O)c1cnccn1)B(O)O , which is 53.3

Kindly note the recorded growth inhibition for Nc1ncn(C2OC(CO)C(O)C2O)c(=O)n1 (configuration not stated) , which is 3.4

Kindly note the recorded growth inhibition for O=C(OCC(O)CO)c1ccccc1Nc1ccnc2cc(Cl)ccc12 (configuration not stated) , which is 0.939

Kindly note the recorded growth inhibition for OC(CCN1CCCC1)(c1ccccc1)C1CCCCC1 (configuration not stated) , which is -1.59

Kindly note the recorded growth inhibition for O=C([O-])c1ccccc1O.[Na+] , which is 1.02
